Collected combination cScore with adagrasib values appear next to each entry.
# System: SW837
# RUN DESCRIPTION: combination cScore with adagrasib (Bliss gap around IC50) (%PoC); higher = stronger additive effect

{"columns": ["COMPOUND", "STUDY TARGET", "combination cScore with adagrasib"],
 "data": [
  ["CCN1CCN(Cc2ccc(Nc3ncc(F)c(-c4cc(F)c5nc(C)n(C(C)C)c5c4)n3)nc2)CC1 [Abemaciclib] + C=C(F)C(=O)N1CCN(c2nc(OC[C@@H]3CCCN3C)nc3c2CCN(c2cccc4cccc(Cl)c24)C3)C[C@@H]1CC#N", "SW837", 12.5],
  ["N#CN=C(NCCCCCCOc1ccc(Cl)cc1)Nc1ccncc1 [GMX1778] + C=C(F)C(=O)N1CCN(c2nc(OC[C@@H]3CCCN3C)nc3c2CCN(c2cccc4cccc(Cl)c24)C3)C[C@@H]1CC#N", "SW837", 2.82]
]}

---

Collected relative IC50 of cell viability values appear next to each entry.
# Test system: NCI-H2122
# RUN DESCRIPTION: relative IC50 of cell viability (CellTiter-Glo); higher = less potent
TEST READOUT: relative IC50 of cell viability (nM)

{"columns": ["COMPOUND", "MEASUREMENT UNITS", "NUMERIC VALUE"],
 "data": [
  ["COc1cc(OC)c(/C=C/S(=O)(=O)Cc2ccc(OC)c(NCC(=O)O)c2)c(OC)c1 [Rigosertib] (top concentration tested 1000.1 nM)", "nM", 123],
  ["C=C(F)C(=O)N1CCN(c2nc(OC[C@@H]3CCCN3C)nc3c2CCN(c2cccc4cccc(Cl)c24)C3)C[C@@H]1CC#N [MRTX849 / Adagrasib] (top concentration tested 999.97 nM)", "nM", 39.7],
  ["O=C(O)C(=O)O.[NH-][C@@H]1CCCC[C@H]1[NH-].[Pt+2] [Oxaliplatin] (top concentration tested 50000 nM)", "nM", 9200],
  ["COC(=O)[C@]12CCC(C)(C)C[C@H]1[C@H]1C(=O)C=C3[C@@]4(C)C=C(C#N)C(=O)C(C)(C)[C@@H]4CC[C@@]3(C)[C@]1(C)CC2 [Bardoxolone methyl] (top concentration tested 1000 nM)", "nM", 319],
  ["Cc1c(N)nc([C@H](CC(N)=O)NC[C@H](N)C(N)=O)nc1C(=O)N[C@H](C(=O)N[C@H](C)[C@@H](O)[C@H](C)C(=O)N[C@H](C(=O)NCCc1nc(-c2nc(C(=O)NCCC[S+](C)C)cs2)cs1)[C@@H](C)O)[C@@H](OC1OC(CO)C(O)C(O)C1OC1OC(CO)C(O)C(OC(N)=O)C1O)c1cnc[nH]1 (stereo not given in full) [Bleomycin] (top concentration tested 10000 nM)", "nM", 1200],
  ["C=CC(=O)Nc1cc(Nc2nccc(-c3cn(C)c4ccccc34)n2)c(OC)cc1N(C)CCN(C)C [Osimertinib] (top concentration tested 10000 nM)", "nM", 2560],
  ["Cc1c(-c2c(-c3ccc(F)o3)sc3ncnc(O[C@H](Cc4ccccc4OCc4ccnn4CC(F)(F)F)C(=O)O)c23)ccc(OCCN2CCN(C)CC2)c1Cl (top concentration tested 10000 nM)", "nM", 3790],
  ["COc1cc(OC2CCN(C)CC2)ccc1Nc1ncc2c(n1)n(C1CCCC1)c(=O)n2C [AZ3146] (top concentration tested 10000 nM)", "nM", 6060],
  ["COc1cc2/c(=N/c3ccc(Br)cc3F)nc[nH]c2cc1OCC1CCN(C)CC1 [Vandetanib] (top concentration tested 10000 nM)", "nM", 2070],
  ["O=C(c1ccc(F)c(F)c1Nc1ccc(I)cc1F)N1CC(O)([C@@H]2CCCCN2)C1 [Cobimetinib] (top concentration tested 999.97 nM)", "nM", 139]
]}

---

# System: SW837
# RUN DESCRIPTION: combination cScore with adagrasib (Bliss gap around IC50) (%PoC); higher = stronger additive effect

{"columns": ["COMPOUND", "combination cScore with adagrasib"],
 "data": [
  ["NC1(c2ccc(-c3nc4ccn5c(=O)[nH]nc5c4cc3-c3ccccc3)cc2)CCC1 [MK-2206] + C=C(F)C(=O)N1CCN(c2nc(OC[C@@H]3CCCN3C)nc3c2CCN(c2cccc4cccc(Cl)c24)C3)C[C@@H]1CC#N", 12.2],
  ["O=C(c1c(F)ccc(NS(=O)(=O)N2CC[C@@H](F)C2)c1F)c1c[nH]c2ncc(-c3cnc(C4CC4)nc3)cc12 [PLX8394] + C=C(F)C(=O)N1CCN(c2nc(OC[C@@H]3CCCN3C)nc3c2CCN(c2cccc4cccc(Cl)c24)C3)C[C@@H]1CC#N", -2.23],
  ["CC(C)Nc1cc(-c2c[nH]c(C(=O)N[C@H](CO)c3cccc(Cl)c3)c2)c(Cl)cn1 [Ulixertinib] + C=C(F)C(=O)N1CCN(c2nc(OC[C@@H]3CCCN3C)nc3c2CCN(c2cccc4cccc(Cl)c24)C3)C[C@@H]1CC#N", 2.22],
  ["Cc1c(N)nc([C@H](CC(N)=O)NC[C@H](N)C(N)=O)nc1C(=O)N[C@H](C(=O)N[C@H](C)[C@@H](O)[C@H](C)C(=O)N[C@H](C(=O)NCCc1nc(-c2nc(C(=O)NCCC[S+](C)C)cs2)cs1)[C@@H](C)O)[C@@H](OC1OC(CO)C(O)C(O)C1OC1OC(CO)C(O)C(OC(N)=O)C1O)c1cnc[nH]1 (stereo not given in full) [Bleomycin] + C=C(F)C(=O)N1CCN(c2nc(OC[C@@H]3CCCN3C)nc3c2CCN(c2cccc4cccc(Cl)c24)C3)C[C@@H]1CC#N", 7.34],
  ["CCNC(=O)C[C@@H]1N=C(c2ccc(Cl)cc2)c2cc(OC)ccc2-n2c(C)nnc21 [iBET-762] + C=C(F)C(=O)N1CCN(c2nc(OC[C@@H]3CCCN3C)nc3c2CCN(c2cccc4cccc(Cl)c24)C3)C[C@@H]1CC#N", 0.28],
  ["Cc1cc(C)c(CNC(=O)c2cc(-c3ccc(N4CCNCC4)nc3)cc3c2c(C)cn3C2CCCC2)c(=O)[nH]1 + C=C(F)C(=O)N1CCN(c2nc(OC[C@@H]3CCCN3C)nc3c2CCN(c2cccc4cccc(Cl)c24)C3)C[C@@H]1CC#N", -0.2],
  ["CC(=O)O[C@@]12CO[C@@H]1C[C@H](O)[C@@]1(C)C(=O)[C@H](O)C3=C(C)[C@@H](OC(=O)[C@H](O)[C@@H](NC(=O)OC(C)(C)C)c4ccccc4)C[C@@](O)([C@@H](OC(=O)c4ccccc4)[C@H]21)C3(C)C [Docetaxel] + C=C(F)C(=O)N1CCN(c2nc(OC[C@@H]3CCCN3C)nc3c2CCN(c2cccc4cccc(Cl)c24)C3)C[C@@H]1CC#N", 0.74],
  ["CO[C@H]1CC[C@H](n2c([C@@H]3CCCC(=O)N3c3ccc(F)c(F)c3)nc3cc(-c4c(C)noc4C)ccc32)CC1 [CCS1477] + C=C(F)C(=O)N1CCN(c2nc(OC[C@@H]3CCCN3C)nc3c2CCN(c2cccc4cccc(Cl)c24)C3)C[C@@H]1CC#N", 7.35],
  ["CCCS(=O)(=O)Nc1ccc(F)c(C(=O)c2c[nH]c3ncc(Cl)cc23)c1F [PLX4720] + C=C(F)C(=O)N1CCN(c2nc(OC[C@@H]3CCCN3C)nc3c2CCN(c2cccc4cccc(Cl)c24)C3)C[C@@H]1CC#N", -5.68],
  ["CC(=O)[C@]1(O)Cc2c(O)c3c(c(O)c2[C@@H](O[C@H]2C[C@H](N)[C@H](O)[C@H](C)O2)C1)C(=O)c1ccccc1C3=O [Idarubicin] + C=C(F)C(=O)N1CCN(c2nc(OC[C@@H]3CCCN3C)nc3c2CCN(c2cccc4cccc(Cl)c24)C3)C[C@@H]1CC#N", 2.73],
  ["C[C@H](Nc1ccc2c(c1)OCCn1cc(N3C(=O)OC[C@H]3C(F)F)nc1-2)C(N)=O [GDC-0077] + C=C(F)C(=O)N1CCN(c2nc(OC[C@@H]3CCCN3C)nc3c2CCN(c2cccc4cccc(Cl)c24)C3)C[C@@H]1CC#N", 5.13],
  ["CC(C)n1nc(-c2ccc3oc(N)nc3c2)c2c(N)ncnc21 [MLN-0128] + C=C(F)C(=O)N1CCN(c2nc(OC[C@@H]3CCCN3C)nc3c2CCN(c2cccc4cccc(Cl)c24)C3)C[C@@H]1CC#N", 9.3],
  ["Cc1nc(Nc2n[nH]c3c2CN(C(=O)N[C@H](CN(C)C)c2ccccc2)C3(C)C)c2sccc2n1 + C=C(F)C(=O)N1CCN(c2nc(OC[C@@H]3CCCN3C)nc3c2CCN(c2cccc4cccc(Cl)c24)C3)C[C@@H]1CC#N", -0.72],
  ["CCN(CCCOc1ccc2c(Nc3cc(CC(=O)Nc4cccc(F)c4)[nH]n3)ncnc2c1)CCOP(=O)(O)O [AZD-1152] + C=C(F)C(=O)N1CCN(c2nc(OC[C@@H]3CCCN3C)nc3c2CCN(c2cccc4cccc(Cl)c24)C3)C[C@@H]1CC#N", 4.03],
  ["Cc1[nH]c(/C=C2\\C(=O)Nc3ccc(S(=O)(=O)Cc4c(Cl)cccc4Cl)cc32)c(C)c1C(=O)N1CCC[C@@H]1CN1CCCC1 + C=C(F)C(=O)N1CCN(c2nc(OC[C@@H]3CCCN3C)nc3c2CCN(c2cccc4cccc(Cl)c24)C3)C[C@@H]1CC#N", -0.48]
]}
